# TARGET_UNDER_TEST: human ether-à-go-go-related gene (hERG) potassium channel (human);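 further: peak tail current of the secondary pulse compared with the same well before compound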
# Sequence (Q12809 whole entry, looked up): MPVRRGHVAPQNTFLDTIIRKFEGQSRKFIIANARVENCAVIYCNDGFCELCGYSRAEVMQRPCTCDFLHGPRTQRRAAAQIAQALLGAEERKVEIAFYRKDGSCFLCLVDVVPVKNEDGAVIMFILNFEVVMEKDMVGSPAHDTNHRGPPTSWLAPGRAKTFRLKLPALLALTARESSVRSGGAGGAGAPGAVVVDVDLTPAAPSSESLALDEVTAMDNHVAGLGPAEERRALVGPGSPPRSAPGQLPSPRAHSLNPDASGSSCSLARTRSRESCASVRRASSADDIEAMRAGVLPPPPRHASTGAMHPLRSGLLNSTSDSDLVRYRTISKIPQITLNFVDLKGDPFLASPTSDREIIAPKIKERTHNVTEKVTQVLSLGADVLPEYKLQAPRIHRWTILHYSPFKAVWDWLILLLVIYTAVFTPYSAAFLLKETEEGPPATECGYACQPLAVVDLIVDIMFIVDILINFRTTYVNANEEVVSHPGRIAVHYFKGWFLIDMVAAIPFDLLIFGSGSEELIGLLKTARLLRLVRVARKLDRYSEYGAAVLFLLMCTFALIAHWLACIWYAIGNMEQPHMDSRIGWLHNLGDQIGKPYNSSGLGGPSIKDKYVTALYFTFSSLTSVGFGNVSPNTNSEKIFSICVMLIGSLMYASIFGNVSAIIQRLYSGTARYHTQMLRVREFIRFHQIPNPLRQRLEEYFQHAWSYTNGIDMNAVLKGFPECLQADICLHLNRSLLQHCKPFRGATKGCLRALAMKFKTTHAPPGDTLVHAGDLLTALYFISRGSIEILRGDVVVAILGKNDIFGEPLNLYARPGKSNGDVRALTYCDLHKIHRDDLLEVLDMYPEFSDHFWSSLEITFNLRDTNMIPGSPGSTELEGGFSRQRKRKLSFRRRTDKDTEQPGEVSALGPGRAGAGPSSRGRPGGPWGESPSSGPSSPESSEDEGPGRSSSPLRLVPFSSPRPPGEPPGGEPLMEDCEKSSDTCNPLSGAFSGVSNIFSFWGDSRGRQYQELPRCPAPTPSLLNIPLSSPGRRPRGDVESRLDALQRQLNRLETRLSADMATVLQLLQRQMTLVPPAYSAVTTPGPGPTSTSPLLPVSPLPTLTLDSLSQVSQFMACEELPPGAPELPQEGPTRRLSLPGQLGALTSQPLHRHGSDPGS
# TEST_NAME: primary screen, population patch clamp on CHO cells stably expressing hERG; higher = less effect of the substance
About 14,000 (4.5%) of roughly 310,000 compounds showed an effect of 50% or more. Effects have a minus sign here. What follows is part of a selection rich in strong results, with near analogues and random picks from the rest.
ENDPOINT_LABEL: hERG current change (%, negative = inhibition) at 10uM (%)
# number only, unit % dropped from output

COMPOUND: CN(C)S(=O)(=O)Oc1ccsc1C(=O)Nc1ccc(Br)cc1
NUMBER: -12.2

Moving on to the next compound.
Q: Item under review: CC(=O)Nc1ccc(NC(=O)c2cc(-n3cnnc3)ccc2Cl)cc1 . Reported hERG current change (%, negative = inhibition) at 10uM?
A: 15.7
